Measured pest or weed control at 125 g/ha accompanies every entry in the list below.
System: pigweed (Amaranthus retroflexus)
experiment-notes: Test A preemergence
Assay type: in vivo
stated-conditions: Amaranthus retroflexus, pre-emergence, 240 h, 125 g ai/ha, Preemergence, visual injury rating after approximately 10 d; read-out: Pigweed plant response rating (0 to 100 scale, 0 is no effect, 100 is complete control)
Unit % implied. Number only.

The molecule identified as CC(C)Oc1ccc([C@H]2CN(C)C(=O)[C@@H]2C(=O)Nc2ccc(F)cc2F)cc1 [Compound 954] registered its pest or weed control at 125 g/ha at 0

* * *

Measured pest or weed control at 125 g/ha accompanies every entry in the list below.
System: Kochia (Kochia scoparia)
experiment-notes: Test A postemergence
Type: in vivo
stated-conditions: Bassia scoparia, post-emergence, 240 h, 125 g ai/ha, postemergence, visual injury rating after approximately 10 d; read-out: Kochia plant response rating (0 to 100 scale, 0 no effect, 100 complete control)
Unit % implied. Number only.

# example entries with known answers
molecule: CN1C[C@H](c2cccc(COC(F)F)c2)[C@@H](C(=O)Nc2cccc(F)c2F)C1=O [Compound 873]
pest or weed control at 125 g/ha / %: 60
--
molecule: COc1c(F)ccc([C@H]2CN(C)C(=O)[C@@H]2C(=O)Nc2ccccc2S(C)(=O)=O)c1Cl [Compound 897]
pest or weed control at 125 g/ha / %: 30
--
molecule: CN1C[C@H](c2cccc(OC(F)(F)C(F)F)c2)[C@@H](C(=O)Nc2ccccc2[S+](C)[O-])C1=O (stereo partly shown) [Compound 863]
pest or weed control at 125 g/ha / %: 40
--
molecule: CN1C[C@H](c2cc(F)c(C(F)(F)F)c(F)c2)[C@@H](C(=O)Nc2ccccc2F)C1=O [Compound 899]
pest or weed control at 125 g/ha / %: 0
--
molecule: COc1c(F)ccc([C@H]2CN(C)C(=O)[C@@H]2C(=O)Nc2ccccc2C(F)(F)F)c1Cl [Compound 896]
pest or weed control at 125 g/ha / %: 20
--
molecule: Cc1c(F)ccc([C@H]2CNC(=O)[C@@H]2C(=O)Nc2ccccc2S(C)(=O)=O)c1F [Compound 832]
pest or weed control at 125 g/ha / %: 20

# input for lookup
The molecule identified as COc1c(F)ccc([C@H]2CNC(=O)[C@@H]2C(=O)Nc2ccc(F)cc2F)c1Cl [Compound 883] registered its pest or weed control at 125 g/ha at 30

* * *

Tested on: blackgrass (Alopecurus myosuroides)
experiment-notes: Test A postemergence
Assay type: in vivo
stated-conditions: 125 g ai/ha, postemergence; visual injury after approximately 10 d; 0 to 100 scale (0 no effect, 100 complete control)
Measured Plant response rating, Blackgrass accompanies every entry in the list below.
Please give the numeric answer without any surrounding text.

compound: O=C1NCC(c2ccc(I)cc2)C1C(=O)Nc1cccc(F)c1 (racemic) [Compound 703]
assay-target: blackgrass (Alopecurus myosuroides)
Plant response rating, Blackgrass: 0

The compound identified as O=C1NCC(c2ccc(I)cc2)C1C(=O)Nc1ccccc1Cl (racemic) [Compound 704] registered its Plant response rating, Blackgrass at 0

The compound identified as O=C1NCC(c2cccc(OC(F)(F)C(F)F)c2)C1C(=O)Nc1ccc(F)cc1F (racemic) [Compound 696] registered its Plant response rating, Blackgrass at 30

The compound identified as O=C1NCC(c2ccc(I)cc2)C1C(=O)Nc1ccccc1F (racemic) [Compound 702] registered its Plant response rating, Blackgrass at 0

* * *

System: wheat (Triticum aestivum)
experiment-notes: Test A postemergence
Assay type: in vivo
stated-conditions: 125 g ai/ha, postemergence; visual injury rating on 0 to 100 scale (0 no effect, 100 complete control), approx. 10 d
metric-name: Wheat plant response rating

# example entries with known answers
molecule: CCc1ccc(C2CNC(=O)C2C(=O)Nc2ccccc2S(C)(=O)=O)cc1 (stereo not drawn)
Wheat plant response rating: 0

molecule: COc1ccc(N2CC(c3cccc(C(F)(F)F)c3)C(C(=O)Nc3ccccc3F)C2=O)cc1 (stereo not drawn)
Wheat plant response rating: 0

The molecule identified as O=C1NCC(c2cccc(OCC(F)F)c2)C1C(=O)Nc1cccc(F)c1F (stereo not drawn) registered its Wheat plant response rating at 0

* * *

System: ragweed (common ragweed, Ambrosia elatior)
experiment-notes: Test A preemergence
Assay type: in vivo
stated-conditions: Ambrosia artemisiifolia, pre-emergence, 240 h, 500 g ai/ha, preemergence; visual injury rating about 10 d after treatment, 0 to 100 scale (0 no effect, 100 complete control); read-out: Ragweed plant response rating
metric-name: pest or weed control at 500 g/ha (%)
Unit % implied. Number only.

# example entries with known answers
compound: Cc1cc([C@H]2CN(C)C(=O)[C@@H]2C(=O)Nc2ccc(F)cc2F)ccc1Br
metric-name: pest or weed control at 500 g/ha
measured-value: 0
--
compound: CCOc1cccc([C@H]2CN(C)C(=O)[C@@H]2C(=O)Nc2cccc(F)c2F)c1
metric-name: pest or weed control at 500 g/ha
measured-value: 80
--
compound: Cc1cc([C@H]2CN(C)C(=O)[C@@H]2C(=O)Nc2ccccc2S(C)(=O)=O)ccc1Cl
metric-name: pest or weed control at 500 g/ha
measured-value: 50

The compound identified as Cc1ccc([C@H]2CN(C)C(=O)[C@]2(O)C(=O)Nc2cccc(F)c2F)cc1 (racemic) registered its pest or weed control at 500 g/ha at 30

The compound identified as Cc1cc([C@H]2CN(C)C(=O)[C@@H]2C(=O)Nc2cccc(F)c2F)cc(C)c1Br registered its pest or weed control at 500 g/ha at 30

The compound identified as CCc1ccccc1NC(=O)[C@H]1C(=O)N(C)C[C@@H]1c1ccc(C(F)(F)F)cc1 registered its pest or weed control at 500 g/ha at 30

The compound identified as CN1C[C@H](c2cc(F)cc(F)c2)[C@@H](C(=O)Nc2ccc(C(F)(F)F)cc2)C1=O registered its pest or weed control at 500 g/ha at 0

The compound identified as Cc1cc([C@H]2CN(C)C(=O)[C@@H]2C(=O)Nc2ccc(F)c(F)c2F)ccc1Br registered its pest or weed control at 500 g/ha at 40

The compound identified as O=C1NC[C@H](c2ccc3c(c2)OCO3)[C@H]1C(=O)Nc1ccc(F)c(F)c1F registered its pest or weed control at 500 g/ha at 80

* * *

Measured Plant response rating, Ragweed accompanies every entry in the list below.
System: ragweed (common ragweed, Ambrosia elatior)
experiment-notes: Test A preemergence
Format: in vivo
stated-conditions: 500 g ai/ha, preemergence; 0 to 100 scale, 0 = no effect, 100 = complete control
Description: […]
Please give the numeric answer without any surrounding text.

# example entries with known answers
compound: Cc1ccc(C2CN(C)C(=O)C2C(=O)Nc2ccc(F)cc2F)cc1 (centres unmarked) [Compound 664]
Plant response rating, Ragweed: 80
--
compound: Cc1ccc(C2CNC(=O)C2C(=O)Nc2ccc(F)cc2F)cc1C(F)(F)F (racemic) [Compound 655]
Plant response rating, Ragweed: 30
--
compound: CN1CC(c2cc(F)cc(F)c2)C(C(=O)Nc2ccc(F)cc2F)C1=O (centres unmarked) [Compound 645]
Plant response rating, Ragweed: 20
--
compound: O=C1NCC(c2cccc(OC(F)(F)C(F)F)c2)C1C(=O)Nc1ccc(F)cc1F (racemic) [Compound 696]
Plant response rating, Ragweed: 40
--
compound: CCC1(C(=O)Nc2cccc(F)c2F)C(=O)N(C)CC1c1cccc(C(F)(F)F)c1 (centres unmarked) [Compound 694]
Plant response rating, Ragweed: 0

The compound identified as CN1CC(c2ccc(F)c(C(F)(F)F)c2)C(C(=O)Nc2ccccc2S(C)(=O)=O)C1=O (centres unmarked) [Compound 612] registered its Plant response rating, Ragweed at 50

The compound identified as CN1CC(c2cccc(OC(F)F)c2)C(C(=O)Nc2ccc(F)cc2F)C1=O (centres unmarked) [Compound 617] registered its Plant response rating, Ragweed at 60

The compound identified as O=C1NCC(c2ccc(I)cc2)C1C(=O)Nc1ccccc1Cl (racemic) [Compound 704] registered its Plant response rating, Ragweed at 20

* * *

Measured Plant response rating, Pigweed accompanies every entry in the list below.
Tested on: pigweed (Amaranthus retroflexus)
experiment-notes: Test A postemergence
Type: in vivo
stated-conditions: Postemergence, 500 g ai/ha; 0 to 100 scale where 0 is no effect and 100 is complete control
Source text: […]

# example entries with known answers
molecule: O=C1NCC(c2cccc(F)c2F)C1C(=O)Nc1ccc(F)cc1F (stereo not drawn) [Compound 495]
assay-target: pigweed (Amaranthus retroflexus)
Plant response rating, Pigweed: 0
//
molecule: O=C1NCC(c2cccc(C(F)(F)F)c2F)C1C(=O)Nc1cccc(F)c1F (stereo not drawn) [Compound 591]
assay-target: pigweed (Amaranthus retroflexus)
Plant response rating, Pigweed: 70
//
molecule: COCc1cccc(C2CNC(=O)C2C(=O)Nc2cccc(F)c2F)c1 (stereo not drawn) [Compound 497]
assay-target: pigweed (Amaranthus retroflexus)
Plant response rating, Pigweed: 0

Noted Plant response rating, Pigweed for O=C1NCC(c2cccc(C(F)(F)F)c2F)C1C(=O)Nc1ccc(F)cc1F (stereo not drawn) [Compound 592] , tested on pigweed (Amaranthus retroflexus): 0

Noted Plant response rating, Pigweed for CN1CC(c2ccc(C(F)(F)F)cc2F)C(C(=O)Nc2ccc(F)cc2F)C1=O (stereo not drawn) [Compound 474] , tested on pigweed (Amaranthus retroflexus): 30

Noted Plant response rating, Pigweed for CN1CC(c2ccc(OC(F)F)cc2)C(C(=O)Nc2cccc(F)c2F)C1=O (stereo not drawn) [Compound 562] , tested on pigweed (Amaranthus retroflexus): 80
